What growth, % of control was measured for each of the following?
assay: qHTS profiling of the MIPE4 collection as inhibitors of Plasmodium falciparum (HB3) proliferation (AID 743347);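 also: plate controls were DMSO vehicle wells for no effect and artemisinin wells for full effect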; details: P. falciparum HB3 in erythrocytes, SYBR Green DNA, 72 h; at 28.5 µM (top of the series) unless noted
One number for each entry, in %.

Look over these answered cases.
CN1C(=O)COc2c(C(=O)NC3CN4CCC3CC4)cc(Cl)cc21 (centres undefined) = 86.6
CN1C(=O)CCS(=O)(=O)C1c1ccc(Cl)cc1 (centres undefined) = 109
CCOC(=O)C1=C[C@@H](OC(CC)CC)[C@H](NC(C)=O)[C@@H](N)C1 = 98.6
CC(NC(C)(C)C)C(=O)c1cccc(Cl)c1 (centres undefined) = 7.91
O=c1[nH]cnc2[nH]ncc12 = 93.3
CC[N+](CC)(CC)CCOc1cccc(OCC[N+](CC)(CC)CC)c1OCC[N+](CC)(CC)CC = 111
CCC1(c2ccc(N)cc2)CCC(=O)NC1=O (centres undefined) = 101
O=C(O)CCCc1ccc(N(CCCl)CCCl)cc1 = 54.2
CC(C)OC(=O)OCOP(=O)(CO[C@H](C)Cn1cnc2c(N)ncnc21)OCOC(=O)OC(C)C = 345
CC(C)[C@H](N)C(=O)OCCOCn1cnc2c(=O)[nH]c(N)nc21 = 102

Consider the additional molecule presented here.
Respond only with growth, % of control recorded for "COc1cc(OC)c(OC)cc1C=O"
102
